test target: BRAF^V600E protein (Homo sapiens, UniProt P15056, V600E)
Sequence (P15056 whole entry V600E): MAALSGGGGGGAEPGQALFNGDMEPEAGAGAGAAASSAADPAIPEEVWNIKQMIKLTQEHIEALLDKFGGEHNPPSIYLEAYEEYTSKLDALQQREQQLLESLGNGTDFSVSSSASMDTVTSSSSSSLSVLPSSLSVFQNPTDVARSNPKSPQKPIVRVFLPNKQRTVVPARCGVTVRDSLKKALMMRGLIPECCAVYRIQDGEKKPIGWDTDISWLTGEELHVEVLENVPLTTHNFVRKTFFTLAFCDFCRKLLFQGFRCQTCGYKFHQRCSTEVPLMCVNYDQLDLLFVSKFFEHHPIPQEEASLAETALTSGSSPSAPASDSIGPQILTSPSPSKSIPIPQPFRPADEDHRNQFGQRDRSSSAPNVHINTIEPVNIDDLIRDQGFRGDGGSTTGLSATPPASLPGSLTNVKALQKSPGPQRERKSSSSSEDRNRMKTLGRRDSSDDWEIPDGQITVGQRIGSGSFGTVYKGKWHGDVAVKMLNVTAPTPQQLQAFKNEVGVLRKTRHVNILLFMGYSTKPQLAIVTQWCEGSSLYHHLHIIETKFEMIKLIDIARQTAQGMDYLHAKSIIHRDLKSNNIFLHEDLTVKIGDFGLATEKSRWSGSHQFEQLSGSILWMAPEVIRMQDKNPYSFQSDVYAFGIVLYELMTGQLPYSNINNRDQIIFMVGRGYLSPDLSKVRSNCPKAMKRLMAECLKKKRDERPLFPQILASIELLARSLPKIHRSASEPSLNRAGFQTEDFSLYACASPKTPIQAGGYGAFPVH
protocol notes: HiBiT cellular BRAF V600E degradation assay
Type: cell-based
settings: A375.10 cells (HiBiT tag knocked in at N-terminal of BRAF V600E), 24 h incubation; concentration at which 50% of total cellular BRAF V600E is degraded
result type: DC50 (nM)

CCN(C)S(=O)(=O)Nc1ccc(F)c(C(=O)c2c[nH]c3ncc(-c4cnc(N5CCN(C(=O)[C@H]6C[C@@H](N7CCC(c8ccc(NC9CCC(=O)NC9=O)cc8)CC7)C6)CC5)nc4)cc23)c1F (stereo partly shown) ... 8.93
CCN(C)S(=O)(=O)Nc1ccc(F)c(C(=O)c2c[nH]c3ncc(-c4ccc(N5CCN(C(=O)CC6(O)CCN(c7ccc(NC8CCC(=O)NC8=O)cc7)CC6)CC5)nc4)cc23)c1F (stereo not shown) ... 7.81
O=C1CCC(Nc2ccc(C3CCN(CC(=O)N4CCN(c5ccc(-c6cnc7[nH]cc(C(=O)c8c(F)ccc(NS(=O)(=O)N9CCCC9)c8F)c7c6)cc5)CC4)CC3)cc2)C(=O)N1 (stereo not shown) ... 5
CCN(C)S(=O)(=O)Nc1ccc(F)c(C(=O)c2c[nH]c3ncc(-c4ccc(N5CCN(C(=O)CN6CCN(c7ccc(NC8CCC(=O)NC8=O)cc7)CC6)CC5)nc4)cc23)c1F (stereo not shown) ... 6.71
